test system: P. falciparum 3D7 growth, pLDH absorbance; assay: blood-stage malaria parasite growth potency – strain 3D7, dose response (AID 2305)
parameter_measured: IC50 (µM)
Give bare numbers, in µM.

>>> reported("O=C(Nc1ccc(Cl)cc1)c1cccc(S(=O)(=O)NC2CCN(CC3CCCCC3)C2)c1 (stereo not given)")
0.91
>>> reported("NC1CCCN(Cc2cccc(-c3ccc(-c4nc5ccc(F)cc5[nH]4)cc3)c2)C1 (stereo not given)")
0.57
>>> reported("COc1ccc(CNC2CCN(C)CC2)cc1-c1ccc(S(=O)(=O)NC2CCC2)s1")
0.73
>>> reported("NCCNc1ccc([N+](=O)[O-])cc1C(=O)Nc1cccc(C(F)(F)F)c1")
0.91
>>> reported("CCc1c[nH]c2c(N3CCCS3(=O)=O)cc(C(=O)N[C@@H](Cc3ccccc3)[C@H](O)CNC(C)(C)CCCC(C)C)cc12")
0.67

Go through the list and state IC50 for each entry.
1. COc1ccc2nc(C)cc(NN=Cc3ccc([N+](=O)[O-])o3)c2c1
2. CNC(=O)C1Cc2c([nH]c3cc(Cl)ccc23)C2(CCN(CCc3ccccc3)CC2)N1 (stereo not given)
3. COCCNCc1nc(-c2ccc3c(Nc4ccc(Cl)cc4F)ccnc3c2)cs1

Solution:
1: 0.7; 2: 0.93; 3: 1.08

Take each entry in turn and give its IC50.
1. CN(C)CCOc1ccc(-c2cc(-c3ccc(Cl)c(O)c3)c(-c3ccncc3)[nH]2)cc1
2. O=C(/C=C/c1cc(F)cc(C(F)(F)F)c1)N1CCC(CN2CCC(c3c[nH]c4ccccc34)CC2)CC1

Solution:
[0.58, 0.76]

Hi, could you look up IC50 for each item in my list?
1. Cc1cccc(Nc2nccc(NCC(O)c3ccc(C(F)(F)F)cc3)n2)c1 (stereo not given)
2. CCOc1ccc2c(c1)N(C(=O)C=Cc1ccccc1)C(C)(C)c1ssc(=S)c1-2
3. C=CCN1C(=O)c2[nH]nc(-c3cc(C)c(C)cc3O)c2C1c1cccc(Br)c1 (stereo not given)

Solution:
1. 0.56
2. 1.15
3. 1.16

Answer for every listed entry: what is its IC50? The entries follow.
1. O=C(Cc1ccccn1)Nc1cccc(-c2cccc(-c3nc4ccc(C(F)(F)F)cc4[nH]3)c2)c1
2. Cc1cc(N[C@@H](CC(C)C)C(=O)NCCc2ccccc2)nc(NCCc2ccc(F)cc2)n1
3. Oc1cccc(Nc2ccnc3cc(-c4ccncc4)ccc23)c1
4. Cc1onc(-c2ccccc2)c1-c1nc(NCCC(c2ccccc2)c2ccccc2)no1
5. CCN(CC)CCOc1cc2c(cc1Br)-c1cc(Br)c(OCCN(CC)CC)cc1C2=NO
6. COc1cc(F)c2ncc(Cl)c(CCN3CCC(NCc4ccc5c(n4)NC(=O)CO5)CC3)c2c1
7. CCOC(=O)C(Oc1ccc2ccccc2c1)C(=O)OCC

Solution:
1: 0.61; 2: 0.77; 3: 1.05; 4: 0.84; 5: 1.09; 6: 0.5; 7: 0.76

* * *

What pIC50 was measured for each of the following?
system: P. falciparum 3D7 growth, pLDH absorbance; assay: blood-stage malaria parasite growth potency – strain 3D7, dose response (AID 2305)
Answers are plain numbers, as −log10 of the molar value.

>>> reported("O=C(NC1CC1)c1ccc(Nc2nccc(-c3c(-c4cccc(NC(=O)c5c(F)cccc5F)c4)nn4ccccc34)n2)cc1")
6.39
>>> reported("O=C(Cc1ccc(NC(=O)c2ccc(O)c(-c3ccc(Cl)c(Cl)c3)c2)cc1)NCCc1ccc(Cl)c(Cl)c1")
6.14
>>> reported("COc1cc2c(cc1OCCN1CCC(N)CC1)N(C(=O)/C=C/c1ccccc1Cl)CC2")
5.95
>>> reported("Cc1cnn(-c2cccc(C(=O)NC3CCC(CCN4CCc5ccc(C#N)cc5CC4)CC3)c2)c1 (configuration not stated)")
6.03
>>> reported("C[C@@H]1CN(c2cnn(C/C=C/c3ccc(NC(=O)c4ccc(Cl)cc4)cc3)c(=O)c2Cl)C[C@H](C)N1")
6.07

For every item in the list below, what is its measured pIC50?
1. CC(CCc1ccccc1)NCC(O)c1cccc(C(F)(F)F)c1 (configuration not stated)
2. COc1ccc(-c2cccc(NC(=O)c3cccc(C#N)c3)c2)cc1CNC(C)C
3. O=C(Nc1cccc(-c2nn3ccccc3c2-c2ccnc(Nc3ccc(NCCCN4CCOCC4)c(F)c3)n2)c1)c1c(F)cccc1F
4. O=C(Nc1cc(F)cc(F)c1)N1CCOC(CCN2CCC3(CCc4ccccc43)CC2)(c2ccc(Cl)c(Cl)c2)C1 (configuration not stated)
5. COc1ccc2nccc([C@@H](O)CN3CCC(NCc4cc5cccc6c5n(c4=O)CCC6)CC3)c2c1
6. CCCCc1ccc(CCNCCCCCCNCCc2ccc(O)c(O)c2)cc1
7. O=C(C=Cc1ccc(Cl)c(Cl)c1)NCCCCCN1CCC(CCCNS(=O)(=O)c2ccc(Br)cc2)CC1

Solution:
1. 6.15
2. 6.16
3. 6.59
4. 6.55
5. 6.07
6. 5.97
7. 5.95

Could you tell me pIC50 for each of these molecules? They are listed below.
1. CC(Cc1ccc(CSC(C)C)cc1)NCC(O)c1cccc(Cl)c1 (configuration not stated)
2. O=C(Nc1ccc(OC2CCN(Cc3ccccc3)C2)c(Cl)c1)c1ccc(F)cc1 (configuration not stated)
3. Cc1c(C(=O)[C@@H]2C[C@H]2CN2CCC(N3CCCCC3)CC2)sc2ccccc12
4. CCNc1cc(C(=O)N[C@@H](Cc2ccccc2)[C@H](O)CN[C@@H](C)c2cccc(OC)c2)cc(N2CCCC2=O)c1
5. O=C(/C=C/c1ccc(Cl)c(Cl)c1)NCCCCCN1CCC(NC(=O)Nc2cc(Cl)ccc2Cl)CC1
6. Cc1ccc(NC(=O)NCCCCCN2CCC(c3c[nH]c4ccccc34)CC2)cc1I

Solution:
6.22
6.10
5.99
6.11
6.37
6.09
